System: human Liver-Chip
Experiment: Liver-Chip DILI prediction: minimum toxic concentration and margin of safety (MOS)-like figure;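 also: Toxic concentration is the lowest across albumin IC50 and ALT and morphology endpoints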
Settings: free IC50 concentration in the assay divided by total concentration of drug in human plasma at Cmax; donor 1
Kindly return Condition met if reported Chip MOS donor 1 is no lower than 4; return Condition not met if it is lower.

[
  {
    "Molecule": "CCN(CC)C(=O)/C(C#N)=C/c1cc(O)c(O)c([N+](=O)[O-])c1 [Entacapone]",
    "Discrete Label": "Condition met"
  },
  {
    "Molecule": "Nc1c2c(nc3ccccc13)CCCC2 [Tacrine]",
    "Discrete Label": "Condition met"
  },
  {
    "Molecule": "CC(C(=O)O)c1ccc2oc(-c3ccc(Cl)cc3)nc2c1 (stereo not shown) [Benoxaprofen]",
    "Discrete Label": "Condition not met"
  },
  {
    "Molecule": "Cc1cn([C@H]2C=C[C@@H](CO)O2)c(=O)[nH]c1=O [Stavudine]",
    "Discrete Label": "Condition met"
  },
  {
    "Molecule": "Cc1cc2c(cc1CC(=O)c1sccc1S(=O)(=O)Nc1onc(C)c1Cl)OCO2 [Sitaxsentan]",
    "Discrete Label": "Condition not met"
  },
  {
    "Molecule": "CCc1ccc(CCOc2ccc(CC3SC(=O)NC3=O)cc2)nc1 (stereo not shown) [Pioglitazone]",
    "Discrete Label": "Condition not met"
  },
  {
    "Molecule": "O=C1CC2(CCCC2)CC(=O)N1CCCCN1CCN(c2ncccn2)CC1 [Buspirone]",
    "Discrete Label": "Condition met"
  },
  {
    "Molecule": "CC[C@H]1OC(=O)[C@H](C)C(=O)[C@H](C)[C@@H](O[C@@H]2O[C@H](C)C[C@H](N(C)C)[C@H]2O)[C@](C)(OC)C[C@@H](C)C(=O)[C@H](C)[C@H]2N(CCCCn3cnc(-c4cccnc4)c3)C(=O)O[C@]12C [Telithromycin]",
    "Discrete Label": "Condition met"
  }
]

Now examine the next entry.
(Q) I'd appreciate it if you could say whether CCc1nn(CCCN2CCN(c3cccc(Cl)c3)CC2)c(=O)n1CCOc1ccccc1 [Nefazodone] has Chip MOS donor 1 at least equal to 4.
(A) Condition not met

###

Tested on: human Liver-Chip (primary human hepatocytes)
Assay: Liver-Chip alanine transaminase (ALT) release in top channel effluent (ELISA)
Type: cell-based
Conditions: expanded drug list; lowest concentration causing an increase in ALT release; donor 1
Description: Cycles 1 to 4 tested 6–8 concentrations in duplicate for each of 10–13 drugs. […] For each of these datasets, we performed curve-fitting analyses and calculated the Root Mean Square Error between the “true” and estimated IC50 parameter. […] The drug dosing concentrations were determined from the unbound human Cmax of each drug. […] Dosing concentrations were then back calculated such that the unbound fraction in media would reflect relevant multiples of unbound human Cmax (Supplementary Data 1). […]
Here, each record is paired with measured ALT Donor 1 data.

[
  {
    "Molecule": "O=C(O)Cc1ccccc1Nc1c(Cl)cccc1Cl",
    "ALT Donor 1": "> 1000 unbound human Cmax multiplier"
  }
]

(Q) Recorded ALT Donor 1 for CC(CCc1ccccc1)NCC(O)c1ccc(O)c(C(N)=O)c1 (stereo not shown) , please?
(A) > 100 unbound human Cmax multiplier

(Q) Recorded ALT Donor 1 for C=C[C@@H]1C[C@]1(NC(=O)[C@@H]1C[C@@H](Oc2ncc(OC)c3ccc(Cl)cc23)CN1C(=O)[C@@H](NC(=O)OC(C)(C)C)C(C)(C)C)C(=O)NS(=O)(=O)C1CC1 , please?
(A) > 1000 unbound human Cmax multiplier

(Q) Recorded ALT Donor 1 for Cc1cn([C@H]2C=C[C@@H](CO)O2)c(=O)[nH]c1=O , please?
(A) 300 unbound human Cmax multiplier

(Q) Recorded ALT Donor 1 for CC(c1cc2ccccc2s1)N(O)C(N)=O (stereo not shown) , please?
(A) > 100 unbound human Cmax multiplier

(Q) Recorded ALT Donor 1 for CC[C@H]1OC(=O)[C@H](C)C(=O)[C@H](C)[C@@H](O[C@@H]2O[C@H](C)C[C@H](N(C)C)[C@H]2O)[C@](C)(OC)C[C@@H](C)C(=O)[C@H](C)[C@H]2N(CCCCn3cnc(-c4cccnc4)c3)C(=O)O[C@]12C , please?
(A) 30 unbound human Cmax multiplier

(Q) Recorded ALT Donor 1 for O=C(NC1CCN(CCCCC2(C(=O)NCC(F)(F)F)c3ccccc3-c3ccccc32)CC1)c1ccccc1-c1ccc(C(F)(F)F)cc1 [Lomitapide] , please?
(A) > 1000 unbound human Cmax multiplier

(Q) Recorded ALT Donor 1 for CCOC(=O)CN[C@@H](C(=O)N1CC[C@H]1C(=O)NCc1ccc(/C(N)=N\O)cc1)C1CCCCC1 , please?
(A) 30 unbound human Cmax multiplier

(Q) Recorded ALT Donor 1 for CC(C(=O)O)c1ccc2oc(-c3ccc(Cl)cc3)nc2c1 (stereo not shown) , please?
(A) > 100 unbound human Cmax multiplier

(Q) Recorded ALT Donor 1 for Nc1c2c(nc3ccccc13)CCCC2 , please?
(A) > 300 unbound human Cmax multiplier

###

Test system: human Liver-Chip (primary human hepatocytes)
Experiment: Liver-Chip alanine transaminase (ALT) release in top channel effluent (ELISA)
Type: cell-based
Settings: lowest concentration causing an increase in ALT protein; donor 1
Measured Attribute: ALT Donor 1

(Q) Recorded ALT Donor 1 for CCc1ccc(CCOc2ccc(CC3SC(=O)NC3=O)cc2)nc1 (stereo not shown) [Pioglitazone] , please?
(A) >300 multiples of the unbound human Cmax

###

System: human Liver-Chip (hepatocyte layer)
Test: Liver-Chip immunofluorescence imaging (caspase 3/7, TMRM, AdipoRed/LipidTOX)
Format: cell-based
Details: matched pair analysis; donor 1
Procedure: Chips were detached from pods and washed once with PBS. […] Afterwards, chips were washed with PBS and stored at 4 °C until staining. […] Chips were imaged immediately or stored at 4 °C until ready for imaging on the Opera Phenix. […] The chips were kept at 37 °C, protected from light, until ready for imaging with the Opera Phenix. […] Once ready, the stained chips were covered with transparent plate film to seal channel ports and loaded into the Phenix. […]
Measured Attribute: IF imaging Donor 1

[
  {
    "Molecule": "O=c1[nH]c(=O)n([C@@H]2O[C@H](CO)[C@@H](O)[C@@H]2F)cc1I [Fialuridine]",
    "Measured Attribute": "IF imaging Donor 1",
    "Result": "No findings"
  },
  {
    "Molecule": "CCc1nn(CCCN2CCN(c3cccc(Cl)c3)CC2)c(=O)n1CCOc1ccccc1",
    "Measured Attribute": "IF imaging Donor 1",
    "Result": "No findings"
  }
]

###

Test system: human Liver-Chip
Assay: Liver-Chip DILI prediction: minimum toxic concentration and margin of safety (MOS)-like figure;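 also: Toxic concentration is the lowest across albumin IC50 and ALT and morphology endpoints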
Details: free IC50 concentration in the assay divided by total concentration of drug in human plasma at Cmax; donor 1
Here, each record is paired with measured Chip MOS donor 1 data.
// keep it numeric: no unit symbol after the value

[
  {
    "Compound": "CCOC(=O)CN[C@@H](C(=O)N1CC[C@H]1C(=O)NCc1ccc(/C(N)=N\\O)cc1)C1CCCCC1",
    "Tested System": "human Liver-Chip",
    "Chip MOS donor 1": 30
  }
]

(Q) Recorded Chip MOS donor 1 for CN1CCN(C2=Nc3cc(Cl)ccc3Nc3ccccc32)CC1 , please?
(A) 1.8

(Q) Recorded Chip MOS donor 1 for CC(CCc1ccccc1)NCC(O)c1ccc(O)c(C(N)=O)c1 (stereo not drawn) , please?
(A) 26

(Q) Recorded Chip MOS donor 1 for Cc1ccc(C(=O)c2cc(O)c(O)c([N+](=O)[O-])c2)cc1 , please?
(A) 0.004

(Q) Recorded Chip MOS donor 1 for Cc1c(C)c2c(c(C)c1O)CCC(C)(COc1ccc(CC3SC(=O)NC3=O)cc1)O2 (stereo not drawn) , please?
(A) 0.03

###

System: human Liver-Chip (primary human hepatocytes)
Assay: Liver-Chip alanine transaminase (ALT) release in top channel effluent (ELISA)
Type: cell-based
Conditions: lowest concentration causing an increase in ALT protein; donor 1
Here, each record is paired with measured ALT Donor 1 data.

[
  {
    "Compound": "CCc1nn(CCCN2CCN(c3cccc(Cl)c3)CC2)c(=O)n1CCOc1ccccc1",
    "Tested System": "human Liver-Chip (primary human hepatocytes)",
    "Result": "300 multiples of the unbound human Cmax"
  },
  {
    "Compound": "Cc1c(C)c2c(c(C)c1O)CCC(C)(COc1ccc(CC3SC(=O)NC3=O)cc1)O2 (stereo not drawn)",
    "Tested System": "human Liver-Chip (primary human hepatocytes)",
    "Result": "300 multiples of the unbound human Cmax"
  }
]

Please turn your attention to the following entry.
(Q) Recorded ALT Donor 1 for Cc1ccc(C(=O)c2cc(O)c(O)c([N+](=O)[O-])c2)cc1 , please?
(A) 100 multiples of the unbound human Cmax

###

System: human Liver-Chip
Test: Liver-Chip DILI prediction: minimum toxic concentration and margin of safety (MOS)-like figure;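 also: Toxic concentration is the lowest across albumin IC50 and ALT and morphology endpoints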
Conditions: free IC50 concentration in the assay divided by total concentration of drug in human plasma at Cmax; donor 2
Measured Attribute: Chip MOS donor 2
// keep it numeric: no unit symbol after the value

Worked set:
[
  {
    "Molecule": "Cc1c(C)c2c(c(C)c1O)CCC(C)(COc1ccc(CC3SC(=O)NC3=O)cc1)O2 (centres unmarked)",
    "Chip MOS donor 2": 0.1
  },
  {
    "Molecule": "CN1CCN(C2=Nc3cc(Cl)ccc3Nc3ccccc32)CC1",
    "Chip MOS donor 2": 5
  },
  {
    "Molecule": "CC(C(=O)O)c1ccc2oc(-c3ccc(Cl)cc3)nc2c1 (centres unmarked)",
    "Chip MOS donor 2": 0.3
  }
]

Please turn your attention to the following entry.
(Q) Recorded Chip MOS donor 2 for CCOC(=O)CN[C@@H](C(=O)N1CC[C@H]1C(=O)NCc1ccc(/C(N)=N\O)cc1)C1CCCCC1 , please?
(A) 300
